System: NCI-H522 lung
Experiment: NCI-60 one-dose screen, 48 h (100 = growth as untreated, 0 = no growth, -100 = all killed)
Conditions: 10 µM unless noted
About 83,000 compounds went through this panel and 20% of them were active in at least one assay; those are over-represented in the sample as a whole.
hey, just use condition met if measured growth is less than 70%, otherwise condition not met

Asked: Bench note: check whether CC(C)=CC1C(C(=O)OCc2cccc(Oc3ccccc3)c2)C1(C)C (centres undefined) shows growth below 70%
Given back: condition not met

Asked: Bench note: check whether Cc1cc(N(CCCl)CCCl)ccc1/C=N\NC(=O)c1ccncc1 shows growth below 70%
Given back: condition not met

Asked: Bench note: check whether CC(C)COC(C[N+](=O)[O-])C(Cl)(Cl)Cl (centres undefined) shows growth below 70%
Given back: condition not met

###

Tested on: A549/ATCC NSCLC
Experiment: NCI-60 one-dose screen, 48 h
Details: 10 µM unless noted
The panel holds about 83,000 compounds, 20% with a hit somewhere; the sample as a whole holds those more often. The source made the active and inactive calls. Rule for the calls: active = growth percent below 10; inactive = the rest.
Field 'call' accepts active, inactive

* Nc1ccc2c(c1)Cc1cc(Br)ccc1-2 | inactive
* CNC(=O)Oc1ccc(N(C)C)cc1C(C)C | inactive
* COC(=O)C12CC(NC(=O)c3csc([C@@H](C[C@H](C(C)C)N(C)C(=O)[C@@H](NC(=O)[C@H]4CCCCN4C)C(C)C)OC(C)=O)n3)(C1)C2 | inactive
* Cc1ccccc1NC(=NCCCN1CC1)Nc1ccccc1C | inactive

Asked: Any idea what this test logged for O=C(Nc1ccncc1F)c1cn(CC2CC2)c2ccccc12 ?
Given back: inactive

Asked: Any idea what this test logged for Cc1ccc(N2COOC3(OOC2)C2CC4CC(C2)CC3C4)cc1 ?
Given back: inactive

###

System: MDA-MB-231 breast
Assay: NCI-60 one-dose screen, 48 h
Details: 10 µM unless noted
This is part of a sample that, as a whole, favours compounds with a hit. Of some 83,000 tested, about 20% had one in any assay. Active and inactive are the calls of the source. Rule for the calls: active = growth percent below 10; inactive = the rest.
Field 'call' accepts Y for active, N for inactive

- C/C=C(\C)C(=O)O[C@@H]1C(O)[C@H]2OC(COC(=O)CCC(=O)CCCCCC[C@H](CCCCC)O[C@@H]3OC(C)[C@H](OC(C)=O)C(O)[C@H]3O2)[C@H]1OC(=O)/C=C/c1ccccc1 (stereo partly drawn): Y

Asked: Any idea what this test logged for COc1ccc(C2=CC(c3ccc(OC)c(OC)c3)c3c(c4ccccc4oc3=O)O2)cc1OC (stereo not drawn) ?
Given back: N

Asked: Any idea what this test logged for CC(=O)O[C@H](C[C@H](C(C)C)N(C)C(=O)[C@@H](NC(=O)[C@H]1CCCCN1C)C(C)C)c1cccc(C(=O)N[C@@H](Cc2ccccc2)C[C@H](C)C(=O)O)n1 ?
Given back: N

Asked: Any idea what this test logged for Fc1cccc(NCOOC2(OOCNc3cccc(F)c3)CCCCC2)c1 ?
Given back: N

Asked: Any idea what this test logged for NC(=O)C(Br)c1ccccc1 (stereo not drawn) ?
Given back: N

Asked: Any idea what this test logged for CCCCCCCC[n+]1ccc2ccccc2c1 ?
Given back: N

Asked: Any idea what this test logged for CN1CCC(c2c[nH]c3ccccc23)C1 (stereo not drawn) ?
Given back: N

Asked: Any idea what this test logged for CCn1c2ccccc2c2cc(C(=O)c3cccc4c3CCCN4)ccc21 ?
Given back: N

Where do these numbers come from? They come from PubChem BioAssay (NCI).
